The reported measurements were obtained from patent US20250027068.

target: pooled human IgG (human IgG1, 2, 3 and 4)
In this section we review reported Enzyme Activity Endpoint Assay: Fab′2 values for a set of proteins.
Readout: Enzyme Activity Endpoint Assay: Fab′2 (ng/µL)

{"columns": ["Protein", "Readout", "Quantitative Readout"],
 "data": [
  ["PRT-477 (protein) MVTSVWTKGVTPPTNFTYGEDVLHAPYVANQGWYDITKTFNGKDDLLCGAATAGNMLHWWFDQNKEQIENYLKKHPEKQKINFNGEQMFDVKEAIDTKDSQLDSKLFEYFKEKAFPYLSTKHLGVFPDHVIDMFINGYRLSLTNHGPTPVKRGSKDPRGGIFDAVFTRGDQSKLLTNRHDLKNKTLKEISDLIKQELTEGKALGISHTYANVRINHVINLWGADFDAEGNLEAIYVTDSDSNASIGMKKYFVGVNSNGKVAISAKEIEEDNIGAQVLGLFTLSTGQDIWNQTNLEHHHHHH", "Enzyme Activity Endpoint Assay: Fab′2", 543],
  ["PRT-582 (protein) MANQEIRYSKAKPKVITSVWTKGVTPPTQFTKNEDVFHAPYLANQGWYDITKTFNGKDDLLCGAATAGNMLHWWFDQNKEQIERYLKKHPEKQKINFNGEQMFDVKEAIDTKDSQTNSKLFNYFKDKAFPYLSTKHLGVFPDHVIDMFINGYRLSLTNHGPTPVKEQNKDPRGGIFDDVFTRGDQSKLLTSRHDFKEKTLKEISDLIKQELKEGKALGLSHTYANVRINHVINLWGADFDAEGNLVAIYVTDSDSNASIGMKKYYVGVNSAGKVAISAKEIEDDNIGAQVLGLFTLSTGKDIWEKTNLEHHHHHH", "Enzyme Activity Endpoint Assay: Fab′2", 28],
  ["PRT-590 (protein) MANQEIRYSEETPSTVTSVWTKGVTPPTDFIQNEDVLHAPYIANQGWYDITKTFNGKDDLLCGAATAGNMLHWWFDQNKEQIENYLKKHPEKQKINFNGEQMFDVKEAIDTKDSQTDSALFEYFKDKAFPYLSTKHLGVFPDHVIDMFINGYRLSLTNHGPTPVKRGTKDPRGGIFDAVFTRGDQSKLLTSRHDFKEKTLNEISDLIKQELTEGKALGLSHTYANVRINHVINLWGADFNAEGNLEAIYVTDSDSNASIGMKKYYVGVNSAGKVAISAKEIEGDNIGAQVLGLFTLSTGQDIWNQTNLEHHHHHH", "Enzyme Activity Endpoint Assay: Fab′2", 954],
  ["PRT-246 (protein) MVTSVWTKGVTPPANFTQGEDVFHAPYVANQGWYDITKLFNGKDDLLCGAATAGNMLHWWFDQNKDQIKRYLEEHPEKQKINFNGEQMFDVKEAIDTKNHQLDSKLFDYFKEKAFPYLSTKHLGVFPDHVIDMFINGYRLSLTNHGPTPVKEGSKDPRGGIFDAVFTRGDQSKLLTSRHDFKEKNLKEISDLIKKELTEGKALGLSHTYANVRINHVINLWGADFDSNGNLKAIYVTDSDSNPSIGMKKYFVGVNSSGKVAISAKEIKEDNIGAQVLGLFTLSTGQDSWNQTN", "Enzyme Activity Endpoint Assay: Fab′2", 666]
]}
